The reported numbers originate from patent US9238034B2.

# target or system: Fn14-TWEAK binding (Homo sapiens)
# Construct: the human Fc fragment-tagged Fn14 extracellular domain (R&D Systems) was captured; purchased R&D Systems (Fn14-Fc); Peprotech (recombinant TWEAK)
# Sequence (Q9NP84 28-80 limits assumed): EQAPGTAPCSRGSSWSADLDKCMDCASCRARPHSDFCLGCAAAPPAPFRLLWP
# assay method text: Double sandwich ELISA small molecule screening of TWEAK binding to captured Fn14-Fc
# experimental parameters: Table 3, first round of screening, 25 μM, replicate 1; read-out: % Reduction in TWEAK Binding, Data 1
So basically: inhibition at 25 µM at 10% or higher? That is Met. Lower than 10%? That is Not met.

{"columns": ["compound", "target or system", "answer label"],
 "data": [
  ["COc1ccc(C2N[C@H](C(=O)O)Cc3c2[nH]c2ccccc32)cc1O (stereo partly drawn)", "Fn14-TWEAK binding (Homo sapiens)", "Not met"]
]}

Request: Does the reported inhibition at 25 µM for CCC(=O)Nc1ccccc1-c1nnc(SCC(=O)Nc2cc(C)ccc2C)[nH]c1=O fall at or above the 10% mark?
Response: Met

Request: Does the reported inhibition at 25 µM for CCC(=O)Nc1ccccc1-c1nnc(SC(CC)C(=O)Nc2cccc(OC)c2)[nH]c1=O (stereo not drawn) fall at or above the 10% mark?
Response: Not met

Request: Does the reported inhibition at 25 µM for O=C(NCc1ccccc1Cl)C(=O)NCc1n[nH]c(=O)c2ccccc12 fall at or above the 10% mark?
Response: Not met

Request: Does the reported inhibition at 25 µM for CCC(=O)Nc1ccccc1-c1nnc(SC(C)C(=O)Nc2cccc(Cl)c2C)[nH]c1=O (stereo not drawn) fall at or above the 10% mark?
Response: Not met

Request: Does the reported inhibition at 25 µM for Cc1cc(C)n(CC(=O)NCCc2c[nH]c3ccccc23)n1 fall at or above the 10% mark?
Response: Met
